target: ROCK2 (Homo sapiens); construct: purchased Carna Biosciences, Kobe, Japan; test: Kinetic analysis of peptide substrate phosphorylation by ROCK2 (Lineweaver–Burk plot); type: biochemical
assay readout: Vmax

chain="KRRRLASLR [S6K, synthetic peptide S6K (…) used as a control for ROCK2, reference compound]" measured="23.1 pmol/min/mg"
chain="KSARKKRYTVVGNPYWM [R134, peptide substrate for ROCK2 …, origin LIMK2]" measured="14.9 pmol/min/mg"
chain="KADRKKRYTVVGNPYWM [R135, peptide substrate for ROCK2 …, origin LIMK2]" measured="8.6 pmol/min/mg"
chain="RAKYKTLRQIR [R4, peptide substrate for ROCK2 …, origin ERM family (Ezrin/ Radixin/ Moesin)]" measured="14.2 pmol/min/mg"
chain="KPARKKRYTVVGNPYWM [R22, peptide substrate for ROCK2 …, origin LIM-kinase 1 (LIMK1)]" measured="10.3 pmol/min/mg"
chain="KSDRKKRYTVVGNPYWM [R133, peptide substrate for ROCK2 …, origin LIMK2]" measured="10.0 pmol/min/mg"

* * *

biological target: ROCK2 (Homo sapiens, UniProt O75116); construct: purchased Carna Biosciences, Kobe, Japan; assay: Kinetic analysis of peptide substrate phosphorylation by ROCK2 (Lineweaver–Burk plot); type: biochemical
Sequence (O75116 1-553 limits assumed): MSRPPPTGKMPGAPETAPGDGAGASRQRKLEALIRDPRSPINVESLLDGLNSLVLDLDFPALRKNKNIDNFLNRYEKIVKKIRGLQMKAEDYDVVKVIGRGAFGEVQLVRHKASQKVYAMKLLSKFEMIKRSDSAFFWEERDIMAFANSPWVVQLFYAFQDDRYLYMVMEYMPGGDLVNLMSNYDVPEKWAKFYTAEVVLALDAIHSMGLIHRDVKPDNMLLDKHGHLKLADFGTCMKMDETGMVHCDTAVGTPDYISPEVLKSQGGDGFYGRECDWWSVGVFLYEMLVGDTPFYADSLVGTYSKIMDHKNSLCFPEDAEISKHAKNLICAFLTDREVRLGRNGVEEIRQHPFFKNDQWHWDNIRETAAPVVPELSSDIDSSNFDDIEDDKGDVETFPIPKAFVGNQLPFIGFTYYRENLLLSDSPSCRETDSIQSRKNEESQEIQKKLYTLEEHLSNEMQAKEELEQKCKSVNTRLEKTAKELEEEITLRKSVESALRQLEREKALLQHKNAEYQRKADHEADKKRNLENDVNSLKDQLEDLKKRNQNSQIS
assay readout: Km (µM)

chain="KADRKKRYTVVGNPYWM [R135, peptide substrate for ROCK2 …, origin LIMK2]" assay_readout=Km unit_text=µM measured=3.2
chain="RAKYKTLRQIR [R4, peptide substrate for ROCK2 …, origin ERM family (Ezrin/ Radixin/ Moesin)]" assay_readout=Km unit_text=µM measured=1.7
chain="KSARKKRYTVVGNPYWM [R134, peptide substrate for ROCK2 …, origin LIMK2]" assay_readout=Km unit_text=µM measured=3.3
chain="KSDRKKRYTVVGNPYWM [R133, peptide substrate for ROCK2 …, origin LIMK2]" assay_readout=Km unit_text=µM measured=3.6
chain="KPARKKRYTVVGNPYWM [R22, peptide substrate for ROCK2 …, origin LIM-kinase 1 (LIMK1)]" assay_readout=Km unit_text=µM measured=1.9
chain="KRRRLASLR [S6K, synthetic peptide S6K (…) used as a control for ROCK2, reference compound]" assay_readout=Km unit_text=µM measured=3.1

Values were extracted from paper PMC3144920.
